Values compiled from patent USRE38132E1.

molecular target: interaction of ICAM-1 with the Leukointegrin CD18/CD11a (LFA-1) (Homo sapiens, UniProt P05107+P20701); construct: endogenous in cells; sICAM-1: made in house, secreted from transfected CHO DUX cells; assay: Assay to determine inhibition of LFA-1 binding to ICAM-1 (immunopurified LFA-1 on plate-bound sICAM-1, ELISA readout)
Sequence (P20701 26-1170): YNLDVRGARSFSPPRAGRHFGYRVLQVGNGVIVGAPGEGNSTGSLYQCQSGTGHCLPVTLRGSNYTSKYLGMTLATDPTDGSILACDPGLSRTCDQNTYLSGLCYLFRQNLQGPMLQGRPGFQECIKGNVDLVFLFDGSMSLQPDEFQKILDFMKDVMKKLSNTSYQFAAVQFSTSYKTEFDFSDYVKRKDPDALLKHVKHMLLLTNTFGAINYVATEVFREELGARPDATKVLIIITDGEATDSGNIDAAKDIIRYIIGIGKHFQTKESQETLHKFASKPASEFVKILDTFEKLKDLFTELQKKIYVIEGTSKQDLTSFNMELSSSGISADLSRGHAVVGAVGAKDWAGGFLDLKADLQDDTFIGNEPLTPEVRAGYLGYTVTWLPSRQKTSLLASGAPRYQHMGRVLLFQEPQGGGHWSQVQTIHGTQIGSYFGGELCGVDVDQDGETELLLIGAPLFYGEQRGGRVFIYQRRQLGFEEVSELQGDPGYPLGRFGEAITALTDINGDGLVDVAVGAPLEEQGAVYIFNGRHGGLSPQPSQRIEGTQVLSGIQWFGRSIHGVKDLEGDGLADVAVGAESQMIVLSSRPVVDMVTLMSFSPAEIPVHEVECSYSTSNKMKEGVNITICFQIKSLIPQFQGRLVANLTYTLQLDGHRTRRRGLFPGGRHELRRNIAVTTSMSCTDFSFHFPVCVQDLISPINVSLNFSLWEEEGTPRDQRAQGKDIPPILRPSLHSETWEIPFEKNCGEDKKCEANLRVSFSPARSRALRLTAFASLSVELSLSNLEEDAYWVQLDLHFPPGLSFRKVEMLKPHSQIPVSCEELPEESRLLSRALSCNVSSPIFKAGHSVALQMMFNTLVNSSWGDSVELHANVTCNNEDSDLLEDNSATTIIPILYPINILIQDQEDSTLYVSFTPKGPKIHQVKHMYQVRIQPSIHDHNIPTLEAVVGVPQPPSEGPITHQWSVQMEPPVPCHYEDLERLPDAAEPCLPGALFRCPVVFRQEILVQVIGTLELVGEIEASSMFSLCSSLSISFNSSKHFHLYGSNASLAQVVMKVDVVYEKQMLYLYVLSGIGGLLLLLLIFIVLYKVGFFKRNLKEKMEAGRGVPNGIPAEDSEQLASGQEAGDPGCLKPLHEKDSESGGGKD
Sequence (P05107 23-769): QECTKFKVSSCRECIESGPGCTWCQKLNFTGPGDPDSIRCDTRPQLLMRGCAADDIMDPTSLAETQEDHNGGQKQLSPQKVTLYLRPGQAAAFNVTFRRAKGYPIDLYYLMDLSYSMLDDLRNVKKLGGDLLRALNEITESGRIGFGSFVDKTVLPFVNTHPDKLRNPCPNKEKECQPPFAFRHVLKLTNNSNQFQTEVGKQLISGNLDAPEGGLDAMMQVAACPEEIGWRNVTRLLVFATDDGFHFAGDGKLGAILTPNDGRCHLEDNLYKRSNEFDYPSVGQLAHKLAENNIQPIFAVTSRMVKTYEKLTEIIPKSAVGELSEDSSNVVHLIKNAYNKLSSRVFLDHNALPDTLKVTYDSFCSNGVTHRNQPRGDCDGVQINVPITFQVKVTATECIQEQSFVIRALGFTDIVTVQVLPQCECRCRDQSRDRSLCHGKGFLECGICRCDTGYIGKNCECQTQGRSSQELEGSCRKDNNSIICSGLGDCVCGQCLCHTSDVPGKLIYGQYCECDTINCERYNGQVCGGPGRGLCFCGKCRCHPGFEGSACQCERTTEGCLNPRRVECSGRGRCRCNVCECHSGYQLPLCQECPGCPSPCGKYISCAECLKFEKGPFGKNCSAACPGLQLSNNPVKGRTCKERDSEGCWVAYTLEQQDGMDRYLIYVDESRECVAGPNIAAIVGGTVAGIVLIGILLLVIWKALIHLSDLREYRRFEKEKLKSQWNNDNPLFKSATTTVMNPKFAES
endpointLabel: Kd (nM)

{"smilesRepresentation": "C[C@@]1(Cc2ccc(Br)cc2)C(=O)N(c2cc(Cl)cc(Cl)c2)C(=O)N1CCCCCS(=O)(=O)O", "scaleUnit": "nM", "experimentalResult": 60}
{"smilesRepresentation": "C[C@]1(Cc2ccccc2)NC(=O)N(c2cc(Cl)cc(Cl)c2)C1=O", "scaleUnit": "nM", "experimentalResult": 280}
{"smilesRepresentation": "C[C@@]1(Cc2ccc(Br)cc2)CC(=O)N(c2cc(Cl)cc(Cl)c2)C1=O", "scaleUnit": "nM", "experimentalResult": 1090}

---

target: interaction of ICAM-1 with the Leukointegrin CD18/CD11a (LFA-1) (Homo sapiens, UniProt P05107+P20701); construct: endogenous in cells; sICAM-1: made in house, secreted from transfected CHO DUX cells; test: Assay to determine inhibition of LFA-1 binding to ICAM-1 (immunopurified LFA-1 on plate-bound sICAM-1, ELISA readout); conditions: values marked e approximated from incomplete dose-response curve
For each record, check the reported Kd: if it is below 300 nM write MET, else write NOT MET.

{"compound": "Cc1ccc(CC2(C)C(=O)N(c3cc(Cl)cc(Cl)c3)C(=O)N2C)cc1 (centres unmarked) [Example 144]", "className": "NOT MET"}
{"compound": "O=C1NC(Cc2ccc([N+](=O)[O-])cc2)C(=O)N1c1cc(Cl)cc(Cl)c1 (centres unmarked) [Example 24]", "className": "NOT MET"}
{"compound": "O=C1NC(C(O)c2ccccc2)C(=O)N1c1cc(Cl)cc(Cl)c1 (centres unmarked)", "className": "NOT MET"}
{"compound": "CN1C(=O)N(c2cc(Cl)cc(Cl)c2)C(=O)C1Cc1ccc(C(=O)c2ccccc2)cc1 (centres unmarked)", "className": "MET"}
{"compound": "COCN1C(=O)N(c2cc(Cl)cc(Cl)c2)C(=O)[C@@]1(C)Cc1ccc(Br)cc1", "className": "MET"}
{"compound": "O=C1NC(Cc2cccc(O)c2)C(=O)N1c1cc(Cl)cc(Cl)c1 (centres unmarked)", "className": "NOT MET"}
{"compound": "CN1C(=O)N(c2cc(Cl)cc(Cl)c2)C(=O)[C@@]1(C)Cc1ccc(-c2ccncc2)cc1", "className": "MET"}
{"compound": "C[C@@]1(Cc2ccc(Br)cc2)C(=O)N(c2cc(Cl)cc(Cl)c2)C(=O)N1C[C@H](O)c1ccccc1", "className": "MET"}
{"compound": "C[C@@]1(Cc2ccc(Br)cc2)C(=O)N(c2cc(Cl)cc(Cl)c2)C(=O)N1Cc1cccc(C#N)c1", "className": "MET"}
{"compound": "CN1C(=O)N(c2cc(Cl)cc(Cl)c2)C(=O)[C@@H]1Cc1ccccc1", "className": "NOT MET"}
{"compound": "CCCC1(Cc2ccc(Br)cc2)C(=O)N(c2cc(Cl)cc(Cl)c2)C(=O)N1C (centres unmarked)", "className": "MET"}
{"compound": "CC1(Cc2c[nH]c3ccccc23)NC(=O)N(c2cc(Cl)cc(Cl)c2)C1=O (centres unmarked) [Example 23]", "className": "NOT MET"}
{"compound": "CN(C)CCN1C(=O)N(c2cc(Cl)cc(Cl)c2)C(=O)C1(C)Cc1ccc(Br)cc1 (centres unmarked)", "className": "NOT MET"}
{"compound": "O=C1NC(Cc2ccccc2O)C(=O)N1c1cc(Cl)cc(Cl)c1 (centres unmarked)", "className": "NOT MET"}
{"compound": "C[C@]1(Cc2ccc(Br)cc2)NC(=O)N(c2cc(C(F)(F)F)cc(C(F)(F)F)c2)C1=O", "className": "MET"}
{"compound": "C[C@@]1(Cc2ccc(Br)cc2)C(=O)N(c2cc(Cl)cc(Cl)c2)C(=O)N1CCCCCCl", "className": "MET"}
{"compound": "CC(=O)N1C(=O)N(c2cc(Cl)cc(Cl)c2)C(=O)C1(C)Cc1ccccc1 (centres unmarked)", "className": "NOT MET"}
{"compound": "COC(=O)c1ccc(CC2(C)C(=O)N(c3cc(Cl)cc(Cl)c3)C(=O)N2C)cc1 (centres unmarked) [Example 140]", "className": "MET"}
{"compound": "CN1C(=O)N(c2cc(Cl)cc(Cl)c2)C(=O)C1(C)Cc1cccc(C#N)c1 (centres unmarked)", "className": "NOT MET"}
{"compound": "CC1(Cc2ccc3c(Cl)cc(C(F)(F)F)nc3c2)NC(=O)N(c2cc(Cl)cc(Cl)c2)C1=O (centres unmarked)", "className": "NOT MET"}
{"compound": "O=C1NC(C(c2ccccc2)c2ccccc2)C(=O)N1c1cc(Cl)cc(Cl)c1 (centres unmarked)", "className": "NOT MET"}
{"compound": "CC1(Cc2ccc(-c3cccc([N+](=O)[O-])c3)cc2)NC(=O)N(c2cc(Cl)cc(Cl)c2)C1=O (centres unmarked)", "className": "NOT MET"}
{"compound": "CC1(Cc2cccc(OC(F)(F)F)c2)NC(=O)N(c2cc(Cl)cc(Cl)c2)C1=O (centres unmarked)", "className": "NOT MET"}
{"compound": "CC1(Cc2ccc(F)c(F)c2)NC(=O)N(c2cc(Cl)cc(Cl)c2)C1=O (centres unmarked)", "className": "NOT MET"}
{"compound": "C[C@]1(Cc2ccc(-c3ccc(C(=O)O)cc3)cc2)NC(=O)N(c2cc(Cl)cc(Cl)c2)C1=O", "className": "NOT MET"}
{"compound": "O=C(c1ccccc1)c1ccc(CC2NC(=O)N(c3cc(Cl)cc(Cl)c3)C2=O)cc1 (centres unmarked)", "className": "NOT MET"}
{"compound": "Cc1cccc(C)c1CC1(C)C(=O)N(c2cc(Cl)cc(Cl)c2)C(=O)N1C (centres unmarked)", "className": "MET"}
{"compound": "COC(=O)c1ccc(CC2(C)C(=O)N(c3cc(Cl)cc(Cl)c3)C(=O)N2C)cc1 (centres unmarked) [Example 174]", "className": "NOT MET"}
{"compound": "CC(C)(C)OC(=O)CN1C(=O)N(c2cc(Cl)cc(Cl)c2)C(=O)C1(C)Cc1ccccc1 (centres unmarked)", "className": "NOT MET"}
{"compound": "CC1(Cc2ccc(-c3cccc(Cl)c3)cc2)NC(=O)N(c2cc(Cl)cc(Cl)c2)C1=O (centres unmarked)", "className": "MET"}
{"compound": "CC(=O)N1C(=O)N(c2cc(Cl)cc(Cl)c2)C(=O)[C@@]1(C)Cc1ccc(Br)cc1", "className": "MET"}
